The reported numbers originate from patent US10806746B2.

- Tested on: DU145 cells
- assay name: MTS viability assay, DU145 prostate cancer cells
- Type: cell-based, human
- condition parameters: Table 1A, 48 h, read-out: CC50 values DU 145
measured quantity: CC50

Hey, DU145 cells data for CCCCCCCCCCCCCCCCOCC(CO[C@@H]1O[C@H](CO)[C@@H](O)[C@H](O)[C@H]1N)NC(=O)CCCCCCCCCCCCCCC (stereo partly drawn) : CC50 came out at > 30 µM

The molecule CCCCCCCCCCCCCCCCOCC(CO[C@@H]1O[C@H](CN)[C@@H](O)[C@H](O)[C@H]1N)O[C@@H]1O[C@H](CN)[C@@H](O)[C@H](O)[C@H]1N (stereo partly drawn) , when measured on DU145 cells, yielded CC50 of > 30 µM

Given the molecule "CCCCCCCCCCCCCCCCOC[C@H](CO[C@H]1O[C@H](CN)[C@@H](O)[C@H](O)[C@H]1N1C(=O)c2ccccc2C1=O)OC" and test system DU145 cells, the measured CC50 is > 30 µM

###

- System: DU145 cells
- assay name: MTS viability assay, DU145 prostate cancer cells
- Assay type: cell-based, human
- condition parameters: Table 1B, 48 h, read-out: CC90 values DU 145
measured quantity: CC90

The reported value for CCCCCCCCCCCCCCCCOC[C@H](CO[C@H]1O[C@H](CN)[C@@H](O)[C@H](O)[C@H]1N1C(=O)c2ccccc2C1=O)OC [Compound 3] in terms of CC90 is > 30 µM

For CCCCCCCCCCCCCCCCOCC(CO[C@@H]1O[C@H](CN)[C@@H](O)[C@H](O)[C@H]1N)O[C@@H]1O[C@H](CN)[C@@H](O)[C@H](O)[C@H]1N (stereo partly drawn) [Compound 5] the molecule record lists CC90 as > 30 µM

// CCCCCCCCCCCCCCCCOCC(CO[C@@H]1O[C@H](CO)[C@@H](O)[C@H](O)[C@H]1N)NC(=O)CCCCCCCCCCCCCCC (stereo partly drawn) [Compound 9] : CC90 value = > 30 µM

###

- System: BT-474 cells
- assay name: MTS viability assay, BT-474 breast cancer cells
- Assay type: cell-based, human
- condition parameters: Table 1B; 48 h, MTS; read-out: CC90 values BT474
measured quantity: CC90

Per the records, this compound ( "CCCCCCCCCCCCCCCCOC[C@@H](CN)O[C@H]1O[C@H](CO)[C@@H](O)[C@H](O)[C@H]1N" ) has CC90 equal to > 30 µM

Short answer for CCCCCCCCCCCCCCCCOCC(CO[C@@H]1O[C@H](CN)[C@@H](O)[C@H](O)[C@H]1N)O[C@@H]1O[C@H](CN)[C@@H](O)[C@H](O)[C@H]1N (stereo partly drawn) : CC90 was > 30 µM

Memo: CCCCCCCCCCCCCCCCOCC(CO[C@@H]1O[C@H](CO)[C@@H](O)[C@H](O)[C@H]1N)NC(=O)CCCCCCCCCCCCCCC (stereo partly drawn) , reported CC90: > 30 µM

###

- System: MDA-MB-231 cells
- assay name: MTS viability assay, MDA-MB-231 breast cancer cells
- Assay type: cell-based, human
- condition parameters: Table 1B, 48 h, read-out: CC90 values MD 231
measured quantity: CC90

Recorded CC90 (compound "CCCCCCCCCCCCCCCCOC[C@H](CO[C@H]1O[C@H](CN)[C@@H](O)[C@H](O)[C@H]1N1C(=O)c2ccccc2C1=O)OC" ): > 30 µM

For reference, reported CC90 for CCCCCCCCCCCCCCCCOCC(CO[C@@H]1O[C@H](CN)[C@@H](O)[C@H](O)[C@H]1N)O[C@@H]1O[C@H](CN)[C@@H](O)[C@H](O)[C@H]1N (stereo partly drawn) stands at > 30 µM

Looking up CCCCCCCCCCCCCCCCOCC(CO[C@@H]1O[C@H](CO)[C@@H](O)[C@H](O)[C@H]1N)NC(=O)CCCCCCCCCCCCCCC (stereo partly drawn) , I see its CC90 listed as > 30 µM
